molecular target: KDM7C(PHD) (Homo sapiens); construct: made in house; assay: AlphaScreen displacement of H3K4me3-Bn from His-KDM7C(PHD); format: binding
Sequence (O75151 5-56 limits assumed): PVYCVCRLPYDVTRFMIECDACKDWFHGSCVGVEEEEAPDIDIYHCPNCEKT
MEASURE: pIC50
# pIC50 is unitless: minus log10 of the molar concentration; print number only

Input Cn1cc(C(=O)c2ccc(OCCC[N+](C)(C)C)cc2)c2ccccc21.[I-] [Compound 2d] . Output pIC50: 3.17

* * *

molecular target: KDM7A(PHD) (Homo sapiens); construct: made in house; test: AlphaScreen displacement of H3K4me3-Bn from His-KDM7A(PHD); type: binding
Sequence (Q6ZMT4 37-88 limits assumed): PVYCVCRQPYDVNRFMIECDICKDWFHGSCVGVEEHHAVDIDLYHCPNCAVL
MEASURE: pIC50
Give only the number. pIC50 is defined as minus log10 of concentration in molar units.

Record "Cn1cc(C(=O)c2ccc(OCCC[N+](C)(C)C)cc2)c2ccccc21.[I-]" , field pIC50: 4.01
